# Test system: Ca^2+ influx in human Jurkat T cells
# Experimental details: Ca^2+ signaling assay in Jurkat T cells activated with PHA-P (Fluo-4, flow cytometer)
# Format: cell-based
# Condition label: Homo sapiens, PHA-P activation, Fluo-4 fluorescence, read-out: IC50 of inhibition of Ca^2+ influx

{"columns": ["Smiles structure", "Study system", "IC50, µM"],
 "data": [
  ["CC(C)(C)c1cc(CCC(=O)c2[nH]c(Cl)c(Cl)c2Cl)cc(C(C)(C)C)c1O", "Ca^2+ influx in human Jurkat T cells", 3.78]
]}

====

# Experimental details: In vivo pharmacokinetics in rat
# Parameters: species or system Sprague Dawley rat
# Condition label: male, Sprague Dawley, plasma, iv, 10000 ug/kg, i.v., 10000 μg/kg, read-out: Terminal t½ (converted)
# Protocol: Compound 1 was administered p.o. (▪) or i.v. (•) to a nine week old male Sprague Dawley rat (FIG. 6). For survival blood collection, 250-350 μL blood samples were collected via jugular vein (JUGVEIN) cannula at proposed time points per study protocol and recorded. Blood was collected pre-dose and at 15 & 30 min, 1, 2, 4, 12, 24 & 48 hr after Compound 1 administration. Blood was collected into lithium heparin tubes for plasma collection. […] Processed study samples were analyzed using LC/MS/MS.
Measured quantity: half-life

{"columns": ["Smiles structure", "Measured quantity", "Result"],
 "data": [
  ["CC(C)(C)c1cc(CCC(=O)c2ccc[nH]2)cc(C(C)(C)C)c1O", "half-life", "2.64 h"]
]}

====

# Experimental details: In vivo pharmacokinetics in rat
# Set-up: species or system Sprague Dawley rat
# Condition label: male, Sprague Dawley, plasma, iv, 10000 ug/kg

{"columns": ["Compound", "Tmax"],
 "data": [
  ["CC(C)(C)c1cc(CCC(=O)c2ccc[nH]2)cc(C(C)(C)C)c1O [Compound 1]", "15 min"]
]}

====

# Experimental details: in vivo
# Format: in vivo, C57/Bl6 mice
# Condition label: C57/Bl6, mouse, in vivo, ip, 5 mg/kg, Compound level in the brain
Measured quantity: concentration at 1 h

{"columns": ["Smiles structure", "Measured quantity", "Result"],
 "data": [
  ["CC(C)(C)c1cc(CCC(=O)c2ccc[nH]2)cc(C(C)(C)C)c1O", "concentration at 1 h", "38 nM"]
]}

====

# Experimental details: In vivo pharmacokinetics in rat
# Design: species or system Sprague Dawley rat
# Condition label: male, Sprague Dawley, plasma, po, 10000 ug/kg

{"columns": ["Smiles structure", "AUC(0-t), ng·h/mL"],
 "data": [
  ["CC(C)(C)c1cc(CCC(=O)c2ccc[nH]2)cc(C(C)(C)C)c1O", 679]
]}

====

# Experimental details: in vivo
# Format: in vivo, C57/Bl6 mice
# Condition label: C57/Bl6, mouse, in vivo, ip, 5 mg/kg, Compound level in the plasma

{"columns": ["Smiles structure", "Unit spec", "concentration at 1 h"],
 "data": [
  ["CC(C)(C)c1cc(CCC(=O)c2ccc[nH]2)cc(C(C)(C)C)c1O", "nM", 23.3]
]}

====

# Experimental details: In vivo pharmacokinetics in rat
# Design: species or system Sprague Dawley rat
# Condition label: male, Sprague Dawley, plasma, iv, 10000 ug/kg
Measured quantity: MRT inf (h)

{"columns": ["Smiles structure", "Number"],
 "data": [
  ["CC(C)(C)c1cc(CCC(=O)c2ccc[nH]2)cc(C(C)(C)C)c1O", 1.9]
]}
